Where do the numbers come from? From paper PMC5920042.

- EXPERIMENT_DESCRIPTION: 28-day repeat oral dose toxicity study, toxicokinetics
- Type: in vivo, Sprague Dawley rats
- EXPERIMENTAL_CONTEXT: male, Sprague Dawley, rat, plasma, po, 75 mg/kg, KH176 75 mg/kg/dose BID oral, M, Day 1, plasma
MEASURED_PROPERTY: half-life (h)
Answer format: numeric, h implied, no suffix.

Request: Look at this molecule and give its reported half-life. `Cc1c(C)c2c(c(C)c1O)CC[C@@](C)(C(=O)N[C@@H]1CCCNC1)O2.Cl`
Result: 4.5

###

- EXPERIMENT_DESCRIPTION: 28-day repeat oral dose toxicity study, toxicokinetics
- Type: in vivo, Sprague Dawley rats
- EXPERIMENTAL_CONTEXT: male, Sprague Dawley, rat, plasma, po, 25 mg/kg, KH176 25 mg/kg/dose BID oral, M, Day 28, plasma, read-out: AUC0–24 h
MEASURED_PROPERTY: AUC(0-t) (ng·h/mL)
Answer format: numeric, ng·h/mL implied, no suffix.

Request: Look at this compound and give its reported AUC(0-t). `Cc1c(C)c2c(c(C)c1O)CC[C@@](C)(C(=O)N[C@@H]1CCCNC1)O2.Cl`
Result: 15600

###

- EXPERIMENT_DESCRIPTION: Single dose pharmacokinetics and bioavailability study
- Assay type: in vivo, male C57BL/6 mice
- EXPERIMENTAL_CONTEXT: male, C57BL/6, po; mouse, KH176 10 mg/kg p.o., plasma
MEASURED_PROPERTY: AUC(0-inf) (ng·h/mL)
Answer format: numeric, ng·h/mL implied, no suffix.

Request: Look at this molecule and give its reported AUC(0-inf). `Cc1c(C)c2c(c(C)c1O)CC[C@@](C)(C(=O)N[C@@H]1CCCNC1)O2.Cl`
Result: 624

###

- EXPERIMENT_DESCRIPTION: Single dose pharmacokinetics and bioavailability study
- Format: in vivo, male Sprague Dawley rats
- EXPERIMENTAL_CONTEXT: male, Sprague Dawley, po; rat, KH176 10 mg/kg p.o., plasma; read-out: Tmax
MEASURED_PROPERTY: Tmax (min)
Answer format: numeric, min implied, no suffix.

Request: Look at this compound and give its reported Tmax. `Cc1c(C)c2c(c(C)c1O)CC[C@@](C)(C(=O)N[C@@H]1CCCNC1)O2.Cl`
Result: 40.2

###

- EXPERIMENT_DESCRIPTION: 28-day repeat oral dose toxicity study, toxicokinetics
- Format: in vivo, Beagle dogs
- EXPERIMENTAL_CONTEXT: female, Beagle, dog, plasma, po, 25 mg/kg, KH176 25 mg/kg/dose BID oral, F, Day 1, plasma
MEASURED_PROPERTY: half-life
Mention the unit after the number when you answer.

Request: Look at this compound and give its reported half-life. `Cc1c(C)c2c(c(C)c1O)CC[C@@](C)(C(=O)N[C@@H]1CCCNC1)O2.Cl`
Result: 1.8 h

###

- EXPERIMENT_DESCRIPTION: 28-day repeat oral dose toxicity study, toxicokinetics
- Assay type: in vivo, Sprague Dawley rats
- EXPERIMENTAL_CONTEXT: female, Sprague Dawley, rat, plasma, po, 25 mg/kg, KH176 25 mg/kg/dose BID oral, F, Day 1, plasma
MEASURED_PROPERTY: half-life
Mention the unit after the number when you answer.

Request: Look at this compound and give its reported half-life. `Cc1c(C)c2c(c(C)c1O)CC[C@@](C)(C(=O)N[C@@H]1CCCNC1)O2.Cl`
Result: 2.6 h

###

- EXPERIMENT_DESCRIPTION: 28-day repeat oral dose toxicity study, toxicokinetics
- Assay type: in vivo, Sprague Dawley rats
- EXPERIMENTAL_CONTEXT: female, Sprague Dawley, rat, plasma, po, 250 mg/kg, KH176 250 mg/kg/dose BID oral, F, Day 1, plasma, read-out: AUC0–24 h
MEASURED_PROPERTY: AUC(0-t) (µg·h/mL)
Answer format: numeric, µg·h/mL implied, no suffix.

Request: Look at this molecule and give its reported AUC(0-t). Cc1c(C)c2c(c(C)c1O)CC[C@@](C)(C(=O)N[C@@H]1CCCNC1)O2.Cl [KH176]
Result: 104

###

- EXPERIMENT_DESCRIPTION: Single dose pharmacokinetics and bioavailability study
- Type: in vivo, male C57BL/6 mice
- EXPERIMENTAL_CONTEXT: male, C57BL/6, plasma, iv; mouse, KH176 2 mg/kg i.v.; read-out: Vss
- Description: Pharmacokinetics and toxicokinetics measurements were performed by the commercial Contract Research Organizations Sai Life Sciences and WuXi AppTec, respectively, according to their standard protocols and in accordance with relevant guidelines and regulations. C57 BL/6 mice, Sprague Dawley rats, and Beagle dogs were studied.
MEASURED_PROPERTY: Vd (L/kg)
Answer format: numeric, L/kg implied, no suffix.

Request: Look at this compound and give its reported Vd. Cc1c(C)c2c(c(C)c1O)CC[C@@](C)(C(=O)N[C@@H]1CCCNC1)O2.Cl [KH176]
Result: 9.5

###

- EXPERIMENT_DESCRIPTION: Single dose pharmacokinetics and bioavailability study
- Type: in vivo, male C57BL/6 mice
- EXPERIMENTAL_CONTEXT: male, C57BL/6, heart, po; mouse, KH176 10 mg/kg p.o.; read-out: Heart to Plasma ratio, range (1–8 hours)
MEASURED_PROPERTY: Kp

Request: Look at this molecule and give its reported Kp. `Cc1c(C)c2c(c(C)c1O)CC[C@@](C)(C(=O)N[C@@H]1CCCNC1)O2.Cl`
Result: 2.4 to 5.7

###

- EXPERIMENT_DESCRIPTION: 28-day repeat oral dose toxicity study, toxicokinetics
- Type: in vivo, Sprague Dawley rats
- EXPERIMENTAL_CONTEXT: male, Sprague Dawley, rat, plasma, po, 75 mg/kg, KH176 75 mg/kg/dose BID oral, M, Day 1, plasma, read-out: Cmax
MEASURED_PROPERTY: Cmax (ng/mL)
Answer format: numeric, ng/mL implied, no suffix.

Request: Look at this molecule and give its reported Cmax. Cc1c(C)c2c(c(C)c1O)CC[C@@](C)(C(=O)N[C@@H]1CCCNC1)O2.Cl [KH176]
Result: 2860

###

- EXPERIMENT_DESCRIPTION: 28-day repeat oral dose toxicity study, toxicokinetics
- Assay type: in vivo, Beagle dogs
- EXPERIMENTAL_CONTEXT: female, Beagle, dog, plasma, po, 25 mg/kg, KH176 25 mg/kg/dose BID oral, F, Day 28, plasma
- Method: Pharmacokinetics and toxicokinetics measurements were performed by the commercial Contract Research Organizations Sai Life Sciences and WuXi AppTec, respectively, according to their standard protocols and in accordance with relevant guidelines and regulations. C57 BL/6 mice, Sprague Dawley rats, and Beagle dogs were studied.
MEASURED_PROPERTY: half-life
Mention the unit after the number when you answer.

Request: Look at this compound and give its reported half-life. `Cc1c(C)c2c(c(C)c1O)CC[C@@](C)(C(=O)N[C@@H]1CCCNC1)O2.Cl`
Result: 2.5 h

###

- EXPERIMENT_DESCRIPTION: 28-day repeat oral dose toxicity study, toxicokinetics
- Format: in vivo, Beagle dogs
- EXPERIMENTAL_CONTEXT: male, Beagle, dog, plasma, po, 25 mg/kg, KH176 25 mg/kg/dose BID oral, M, Day 28, plasma, read-out: AUC0–24 h
MEASURED_PROPERTY: AUC(0-t) (ng·h/mL)
Answer format: numeric, ng·h/mL implied, no suffix.

Request: Look at this compound and give its reported AUC(0-t). `Cc1c(C)c2c(c(C)c1O)CC[C@@](C)(C(=O)N[C@@H]1CCCNC1)O2.Cl`
Result: 39900

###

- EXPERIMENT_DESCRIPTION: 28-day repeat oral dose toxicity study, toxicokinetics
- Type: in vivo, Sprague Dawley rats
- EXPERIMENTAL_CONTEXT: female, Sprague Dawley, rat, plasma, po, 75 mg/kg, KH176 75 mg/kg/dose BID oral, F, Day 28, plasma
MEASURED_PROPERTY: half-life (h)
Answer format: numeric, h implied, no suffix.

Request: Look at this compound and give its reported half-life. Cc1c(C)c2c(c(C)c1O)CC[C@@](C)(C(=O)N[C@@H]1CCCNC1)O2.Cl [KH176]
Result: 6

###

- EXPERIMENT_DESCRIPTION: 28-day repeat oral dose toxicity study, toxicokinetics
- Format: in vivo, Sprague Dawley rats
- EXPERIMENTAL_CONTEXT: female, Sprague Dawley, rat, plasma, po, 25 mg/kg, KH176 25 mg/kg/dose BID oral, F, Day 1, plasma, read-out: AUC0–24 h
MEASURED_PROPERTY: AUC(0-t) (µg·h/mL)
Answer format: numeric, µg·h/mL implied, no suffix.

Request: Look at this molecule and give its reported AUC(0-t). Cc1c(C)c2c(c(C)c1O)CC[C@@](C)(C(=O)N[C@@H]1CCCNC1)O2.Cl [KH176]
Result: 12.5
